COND: in acetonitrile, 293.15 K
RECORDED ENDPOINT: solubility (mole fraction)
Give the figure only, with no unit attached.

For the compound N#CCC(N)=O , what solubility (mole fraction) is on record?
0.0329

---

COND: in methanol, 298.15 K
RECORDED ENDPOINT: solubility (mole fraction)
Number only, no unit.

Returns the measured solubility (mole fraction) for the input compound. Input: N#CCC(N)=O
0.0332

---

COND: in methyl acetate, 308.15 K
RECORDED ENDPOINT: solubility (mole fraction)
Form field (numeric): enter value without unit.

// query solubility (mole fraction) value for entry N#CCC(N)=O
0.0355

Cited source: BigSolDB 2.1
